# Test system: UO-31 renal
# Method Notes: NCI tumour cell line growth inhibition, 48 h; in the data active = GI50 below about 0.43 µM; inactive = the rest
Just give me one of these, please: active, inactive

See these solved cases before continuing.
Compound	Target	Class Assignment
CCN(c1cc(C#CCN2CCOCC2)cc(C(=O)NCc2c(C)cc(C)[nH]c2=O)c1C)C1CCC(N(C)CCOC)CC1 (stereo not given)	UO-31 renal	inactive
O=C(c1ccccc1)c1c(C(F)(F)F)n([O-])c2ccc(C(F)(F)F)cc2[n+]1=O	UO-31 renal	active
CN(C)/N=N/c1nc[nH]c1C(N)=O	UO-31 renal	inactive

*Q* Give the logged outcome of this assay for the following compound: Cn1cc(C2=C(N3CCOCC3)C(=O)NC2=O)c2ccccc21
*A* inactive

*Q* Give the logged outcome of this assay for the following compound: COc1cc2c3c(n(C)c(=O)c2cc1OC)-c1cc2c(cc1/C3=C\CCNCCCN)OCO2
*A* inactive

*Q* Give the logged outcome of this assay for the following compound: CCN(CC)c1ccc(/C=C/C=C2\NC(=O)NC2=O)cc1
*A* inactive

*Q* Give the logged outcome of this assay for the following compound: COc1cc(NC(=O)C2=C(N3CCOCC3)/C(=C/c3ccc(Cl)cc3)CC2)cc(OC)c1OC
*A* inactive

*Q* Give the logged outcome of this assay for the following compound: C[C@@H]1COCCN1c1cc(C2(O)C[C@H]3CC[C@@H](C2)O3)c2cnn(-c3ccn[nH]3)c2n1 (stereo not given in full)
*A* active

*Q* Give the logged outcome of this assay for the following compound: COc1cccc2c1n([O-])c1cccc(OC)c1[n+]2=O
*A* inactive

*Q* Give the logged outcome of this assay for the following compound: COc1c(B(O)O)cc(F)cc1-c1nc2ccc3[nH]ncc3c2c2c1CCCC2
*A* active

====

// values below are reported GI50
# System: SK-MEL-28 melanoma
# Method Notes: NCI tumour cell line growth inhibition, 48 h

*Q* Can you look up the measured GI50 of CS(=O)(=O)N(c1cc(-c2ccc3ncnc(Nc4cccc(Cl)c4)c3c2)cnc1Cl)S(C)(=O)=O for me?
*A* 0.306 µM

*Q* Can you look up the measured GI50 of COc1ccc(/C=C\c2cc(OC)c(OC)c(OC)c2)cc1O for me?
*A* 3.16 µM

*Q* Can you look up the measured GI50 of Nc1c(C(=O)Nc2cccc(Cl)c2Cl)sc2nc3c(cc12)C(=O)CCC3 for me?
*A* > 100 µM

*Q* Can you look up the measured GI50 of CCC[CH2][Sn]1([CH2]CCC)[O]CC(C)[O]1 (stereo not given) for me?
*A* 2.24 µM

*Q* Can you look up the measured GI50 of CC(=O)[O-].O=C([CH-]C(=O)c1ccccc1)c1ccccc1.O=C([CH-]C(=O)c1ccccc1)c1ccccc1.[Sm+3] for me?
*A* 5.87 µM

====

# System: MOLT-4 leukemia
# Method Notes: NCI tumour cell line growth inhibition, 48 h
Quantity: GI50

Record excerpt, results attached:
Mol Smiles	Quantity	Data Value
Cc1cc(Nc2cc(N)ncn2)c(=O)n2c1C(=O)NC21CCCCC1	GI50	> 100 µM
COc1ccc2ccc3oc([N+](=O)[O-])cc3c2c1	GI50	0.0745 µM
COc1cc(-c2csc(NC(=O)Nc3cc(Cl)cc(Cl)c3)n2)cc(OC)c1OC	GI50	3.9 µM
O=C(CCCCC(=O)N/N=C\c1ccccc1O)N/N=C\c1ccccc1O	GI50	3.01 µM

*Q* Can you look up the measured GI50 of Nc1ncc(-c2cccc(S(N)(=O)=O)c2)c2scc(-c3ccc(F)c(Cl)c3)c12 for me?
*A* 5.35 µM
